molecular target: NDM-1 (Klebsiella pneumoniae, UniProt C7C422); assay: biochemical; details: 50 μM compound, 5 nM MBL, 10 μM nitrocefin, 30 mins
Sequence (C7C422 whole entry, looked up, species assumed): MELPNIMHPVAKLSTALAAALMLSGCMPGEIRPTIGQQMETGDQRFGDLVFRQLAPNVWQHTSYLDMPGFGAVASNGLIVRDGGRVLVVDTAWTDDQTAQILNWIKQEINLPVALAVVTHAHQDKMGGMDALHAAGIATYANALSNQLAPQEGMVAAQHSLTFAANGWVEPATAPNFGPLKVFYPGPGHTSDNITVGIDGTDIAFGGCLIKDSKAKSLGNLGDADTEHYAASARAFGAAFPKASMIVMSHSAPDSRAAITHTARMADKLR
measuredProperty: NDM-1 percentage inhibition (%)

In [3]: df
Out[3]:
                                   compound  reportedvalue
0          Cc1ccc2cccc(O)c2n1 [Compound 40]              9
1             Oc1cccc2ncccc12 [Compound 35]              6
2             Oc1ccc2ncccc2c1 [Compound 36]              1
3    [O-][n+]1cccc2cccc(O)c21 [Compound 39]              7
4  O=C(c1ccc(O)cc1)c1ccc(O)c(O)c1O [Compound 13]             36
5       O=C(O)/C(S)=C\c1cccnc1 [Compound 5]             39
6             Oc1ccc2ccccc2n1 [Compound 32]              0
7             Nc1cccc2cccnc12 [Compound 38]              3
8             Oc1ccc2cccnc2c1 [Compound 37]              8
9             Oc1ccnc2ccccc12 [Compound 34]              1
